- Tested System: CDK2-NanoLuc fusion with CCNE1 in 293T or 293 cells (Homo sapiens)
- Construct: host or cells: 293T (ATCC CRL-3216) or 293 (ATCC CRL-1573)
- Measurement Protocol: NanoBRET Target Engagement (TE) Intracellular Kinase Assay, CDK2/CCNE1
- Format: cell-based
- Run Parameters: NanoBRET TE intracellular kinase assay, 2-hour incubation, read-out: NanoBRET-CDK2/E1 IC50
- Description: Inhibitory effects of compounds were measured in NanoBRET TE Intracellular Kinase Assay. […] NanoBRET signals (donor emission wavelength at 450 nm, acceptor emission wavelength at 610 nm) were measured using Envision plate reader (PerkinElmer). NanoBRET ratio was calculated by: BRET Ratio=raw signal for acceptor/raw signal for donor. […]
Endpoint: IC50 (nM)

a. CC(C)NC(=O)O[C@@H]1CC[C@H](c2cc(NC(=O)COc3cc(OC(F)F)cc(O)c3C=O)n[nH]2)C1
b. COc1cc(O)c(C=O)c(OCC(=O)Nc2cc([C@H]3CC[C@@H](OC(=O)Nc4ccncc4)C3)[nH]n2)c1
Inquiry: Sorting ascending by IC50, which comes first: a or b ? Lab log: write the label of the selected item as the result.
Reply text: a
(a: 7.32 nM, b: 12.8 nM)

====

- Tested System: CDK1-NanoLuc fusion with CCNB1 in 293T or 293 cells (Homo sapiens)
- Construct: host or cells: 293T (ATCC CRL-3216) or 293 (ATCC CRL-1573)
- Sequence (P06493 whole entry, the tested form may be a part): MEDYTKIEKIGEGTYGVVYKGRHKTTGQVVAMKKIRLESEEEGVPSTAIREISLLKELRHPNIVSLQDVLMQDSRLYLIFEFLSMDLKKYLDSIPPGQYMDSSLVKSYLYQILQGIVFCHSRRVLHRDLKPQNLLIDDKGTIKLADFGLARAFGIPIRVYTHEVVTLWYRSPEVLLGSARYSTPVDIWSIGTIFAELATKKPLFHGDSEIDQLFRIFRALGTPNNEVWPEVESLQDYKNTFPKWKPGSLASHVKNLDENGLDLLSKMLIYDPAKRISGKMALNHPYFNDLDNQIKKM
- Sequence (P14635 whole entry partner, the tested form may be a part): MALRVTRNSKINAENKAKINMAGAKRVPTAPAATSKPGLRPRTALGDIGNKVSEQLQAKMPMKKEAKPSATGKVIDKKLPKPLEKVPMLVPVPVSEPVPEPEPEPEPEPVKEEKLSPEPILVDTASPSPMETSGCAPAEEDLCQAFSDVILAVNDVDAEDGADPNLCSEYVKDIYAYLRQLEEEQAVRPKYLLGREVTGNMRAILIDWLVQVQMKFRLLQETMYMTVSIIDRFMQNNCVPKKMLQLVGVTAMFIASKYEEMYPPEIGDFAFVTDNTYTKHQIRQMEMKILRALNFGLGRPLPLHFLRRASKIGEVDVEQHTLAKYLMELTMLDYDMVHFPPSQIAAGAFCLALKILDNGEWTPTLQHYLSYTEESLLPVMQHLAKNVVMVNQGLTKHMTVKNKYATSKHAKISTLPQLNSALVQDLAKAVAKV
- Measurement Protocol: NanoBRET Target Engagement (TE) Intracellular Kinase Assay, CDK1/CCNB1
- Type: cell-based
- Run Parameters: NanoBRET TE intracellular kinase assay, 2-hour incubation, read-out: NanoBRET-CDK1/B1 IC50
pIC50: −log10 of the molar value.
Endpoint: pIC50

Below: 8 compounds and their reported pIC50.
- Compound: "COCCOCCNC(=O)O[C@@H]1CC[C@H](c2cc(NC(=O)COc3cc(OC)cc(O)c3C=O)n[nH]2)C1"
  Observed Measurement: 7.58
- Compound: "CC(C)NC(=O)O[C@@H]1CC[C@H](c2cc(NC(=O)OCCc3cccc(O)c3C=O)n[nH]2)C1"
  Observed Measurement: 6.27
- Compound: "CC(C)NC(=O)O[C@@H]1CC[C@H](c2cc(NC(=O)CNc3cccc(O)c3C=O)n[nH]2)C1"
  Observed Measurement: 5.09
- Compound: "CC(C)NC(=O)O[C@@H]1CC[C@H](c2cc(NC(=O)CCOc3cccc(O)c3C=O)n[nH]2)C1"
  Observed Measurement: 7.00
- Compound: "CC(C)NC(=O)O[C@@H]1CC[C@H](c2cc(NC(=O)Cc3ccc(O)c(C=O)c3)n[nH]2)C1"
  Observed Measurement: 8.26
- Compound: "COc1cc(O)c(C=O)c(OCC(=O)Nc2cc([C@H]3CC[C@@H](OC(=O)NC(C)C)C3)[nH]n2)c1"
  Observed Measurement: 8.02
- Compound: "COc1cc(OC)c(C=O)c(OCC(=O)Nc2cc([C@H]3CC[C@@H](OC(=O)N4CCC4(C)C)C3)[nH]n2)c1"
  Observed Measurement: 9.21
- Compound: "COc1cc(O)c(C=O)c(OCC(=O)Nc2cc([C@H]3CC[C@@H](OC(=O)N4[C@H](C)COC[C@@H]4C)C3)[nH]n2)c1"
  Observed Measurement: 7.89

A. CC(C)NC(=O)O[C@@H]1CC[C@H](c2cc(NC(=O)[C@H]3C[C@@H](Oc4cccc(O)c4C=O)C3)n[nH]2)C1 (single isomer, unassigned)
B. CC(C)NC(=O)O[C@@H]1CC[C@H](c2cc(NC(=O)COc3cc(Cl)cc(O)c3C=O)n[nH]2)C1
Inquiry: // select label with min value of measured pIC50 from [ A , B ] Answer by quoting the chosen item's label.
Reply text: A

P. COc1cc(O)c(C=O)c(OCC(=O)Nc2cc([C@H]3CC[C@@H](OC(=O)NCCC#N)C3)[nH]n2)c1
Q. COC[C@H](C)NC(=O)O[C@@H]1CC[C@H](c2cc(NC(=O)COc3cc(OC)cc(O)c3C=O)n[nH]2)C1
Inquiry: Name the one with the greater pIC50 value, either P or Q as given. # respond with the chosen item's label
Reply text: Q
(Q: 8.05, P: 7.67)

====

- Measurement Protocol: Solubility determination in PBS pH 7.4
- Type: physicochemical
- Run Parameters: aqueous buffer, kinetic from dmso stock; PBS pH 7.4, 2 hours, 25° C.; the listed prodrug
Endpoint: solubility at 2 h (µM)

Some solved entries appear below for comparison.
- Compound: "CCOC(=O)C/N=C/c1c(O)cc(OC)cc1OCC(=O)Nc1cc([C@H]2CC[C@@H](OC(=O)NC(C)C)C2)[nH]n1 [Compound 64p]"
  Unit Abbrev: "µM"
  Observed Measurement: 4.8
- Compound: "COc1cc(O)c(/C=N/C(C)C)c(OCC(=O)Nc2cc([C@H]3CC[C@@H](OC(=O)NC4(C)CC4)C3)[nH]n2)c1 [Compound 251a]"
  Unit Abbrev: "µM"
  Observed Measurement: 50
- Compound: "COc1cc(O)c(/C=N/C(C)C)c(OCC(=O)Nc2cc([C@H]3CC[C@@H](OC(=O)NC(C)C)C3)[nH]n2)c1 [Compound 64a]"
  Unit Abbrev: "µM"
  Observed Measurement: 215
- Compound: "COc1cc(O)c(/C=N/CCS(=O)(=O)O)c(OCC(=O)Nc2cc([C@H]3CC[C@@H](OC(=O)NC(C)C)C3)[nH]n2)c1 [Compound 64q]"
  Unit Abbrev: "µM"
  Observed Measurement: 243

1. CC/N=C/c1c(O)cc(OC)cc1OCC(=O)Nc1cc([C@H]2CC[C@@H](OC(=O)NC(C)C)C2)[nH]n1 [Compound 64c]
2. CCCC/N=C/c1c(O)cc(OC)cc1OCC(=O)Nc1cc([C@H]2CC[C@@H](OC(=O)NC(C)C)C2)[nH]n1 [Compound 64d]
Inquiry: Of the two listed items, which has the higher solubility at 2 h? First: 1 Second: 2 Your answer should be the label attached to the chosen record.
Reply text: 1
(1: 246 µM, 2: 67 µM)

====

- Tested System: CDK4-NanoLuc fusion with CCND1 in 293T or 293 cells (Homo sapiens)
- Construct: host or cells: 293T (ATCC CRL-3216) or 293 (ATCC CRL-1573)
- Sequence (P11802 whole entry, the tested form may be a part): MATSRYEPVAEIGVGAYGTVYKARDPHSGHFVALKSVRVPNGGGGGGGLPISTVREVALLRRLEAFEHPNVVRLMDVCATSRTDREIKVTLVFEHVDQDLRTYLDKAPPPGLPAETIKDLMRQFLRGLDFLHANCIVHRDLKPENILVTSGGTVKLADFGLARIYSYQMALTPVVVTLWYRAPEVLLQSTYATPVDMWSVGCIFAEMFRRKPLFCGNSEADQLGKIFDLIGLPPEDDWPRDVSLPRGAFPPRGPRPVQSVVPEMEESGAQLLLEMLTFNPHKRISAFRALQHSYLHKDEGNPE
- Sequence (P24385 whole entry partner, the tested form may be a part): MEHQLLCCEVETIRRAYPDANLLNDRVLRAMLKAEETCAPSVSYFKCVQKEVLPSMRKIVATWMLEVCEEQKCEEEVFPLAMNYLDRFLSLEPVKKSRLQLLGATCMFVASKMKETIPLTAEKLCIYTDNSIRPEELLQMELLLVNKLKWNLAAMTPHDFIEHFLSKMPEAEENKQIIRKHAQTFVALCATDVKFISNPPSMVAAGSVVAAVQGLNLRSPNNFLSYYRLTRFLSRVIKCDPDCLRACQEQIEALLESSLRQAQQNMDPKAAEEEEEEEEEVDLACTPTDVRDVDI
- Measurement Protocol: NanoBRET Target Engagement (TE) Intracellular Kinase Assay, CDK4/CCND1
- Assay type: cell-based
- Run Parameters: NanoBRET-CDK4/D1 IC50, NanoBRET TE intracellular kinase assay, 2-hour incubation
Endpoint: IC50 (µM)
Give just the numeric value; µM need not be written.

Inquiry: // query IC50 value for entry `COc1cc(O)c(C=O)c(OCC(=O)Nc2cc([C@H]3CC[C@@H](OC(=O)N4C5CCC4COC5)C3)[nH]n2)c1`
Reply text: 4.13

====

- Tested System: CDK2-NanoLuc fusion with CCNE1 in 293T or 293 cells (Homo sapiens, UniProt P24941)
- Construct: host or cells: 293T (ATCC CRL-3216) or 293 (ATCC CRL-1573)
- Measurement Protocol: NanoBRET Target Engagement (TE) Intracellular Kinase Assay, CDK2/CCNE1
- Type: cell-based
- Run Parameters: NanoBRET TE intracellular kinase assay, 2-hour incubation, read-out: NanoBRET-CDK2/E1 IC50
pIC50: −log10 of the molar value.
Endpoint: pIC50

Worked examples, 3 molecules total:
- Molecule: "COc1cc(O)c(C=O)c(OCC(=O)Nc2cc([C@H]3CC[C@@H](OC(=O)N4[C@H](C)COC[C@@H]4C)C3)[nH]n2)c1"
  pIC50: 8.39
- Molecule: "COc1cc(O)c(C=O)c(OCC(=O)Nc2cc([C@H]3CC[C@@H](OC(=O)N4CC5CC(C5)C4)C3)[nH]n2)c1"
  pIC50: 8.61
- Molecule: "COc1cccc(-c2cc(C(=O)Nc3cc([C@H]4CC[C@@H](OC(=O)NC(C)C)C4)[nH]n3)n(C)n2)c1C=O"
  pIC50: 8.37

A. COc1cc(O)c(C=O)c(OCC(=O)Nc2cc([C@H]3CC[C@@H](OC(=O)N4C[C@@H]5CC[C@H]4CO5)C3)[nH]n2)c1
B. CCc1cc(O)c(C=O)c(OCC(=O)Nc2cc([C@H]3CC[C@@H](OC(=O)NC4(C)CC4)C3)[nH]n2)c1
Inquiry: Returns the identifier with the smallest measured pIC50 among A and B . Respond with the label that goes with your answer.
Reply text: A

A. CC(C)NC(=O)O[C@@H]1CC[C@H](c2cc(NC(=O)COc3cc(Cl)cc(O)c3C=O)n[nH]2)C1
B. CC(C)NC(=O)O[C@@H]1CC[C@H](c2cc(Nc3cc(Oc4cccc(O)c4C=O)ccn3)n[nH]2)C1
Inquiry: Kindly compare A with B and tell me which has the lower pIC50 figure. To answer, give the label that identifies your chosen option.
Reply text: A

a. CC(C)NC(=O)O[C@@H]1CC[C@H](c2cc(Nc3cc(OCc4cccc(O)c4C=O)ccn3)n[nH]2)C1
b. COc1cc(O)c(C=O)c(OCC(=O)Nc2cc([C@H]3CC[C@@H](OC(=O)NCC#N)C3)[nH]n2)c1
c. COc1cccc(OCC(=O)Nc2cc([C@H]3CC[C@@H](OC(=O)NC4(C)CCC4)C3)[nH]n2)c1C=O
Inquiry: Order these by pIC50, descending, and give the full ranking. Hello, could you send the labels back in the order asked? Thank you.
Reply text: c, a, b
(c: 9.00, a: 8.00, b: 7.59)

P. CC(C)NC(=O)O[C@@H]1CC[C@H](c2cc(NC(=O)[C@H]3C[C@@H](Oc4cccc(O)c4C=O)C3)n[nH]2)C1 (single isomer, unassigned)
Q. CC(C)NC(=O)O[C@@H]1CC[C@H](c2cc(NC(=O)COc3cc(F)cc(O)c3C=O)n[nH]2)C1
Inquiry: Hey, between P and Q which has a smaller measured pIC50? // output: label of the selected item
Reply text: Q
